The reported measurements were obtained from ChEMBL document CHEMBL4513216.

tested on: Plasmodium berghei; assay: Screen against P. berghei liver stage (PbLuc), transformed with Luciferase, at 10uM; type: functional, HepG2; settings: tested at 10 uM
The campaign covered roughly 69,000 compounds. About 8,600 (12%) showed an effect of 50% or more. The sample holds strong results, similar compounds and a random draw of the others, so the mix is not that of the screen.
Rule for this label: MET means INHIBITION is less than 30%; NOT MET means INHIBITION is at least 30%.

{"columns": ["line_notation", "target_or_test_system", "assigned_class"],
 "data": [
  ["CN1CCN(c2ccc3ccc(C(=O)N4CCCO4)cn23)CC1", "Plasmodium berghei", "NOT MET"],
  ["CCN(CC)c1ccc2ccc(C(=O)NC3CC3)cn12", "Plasmodium berghei", "MET"]
]}

(Q) Please determine if CCN(CC)c1ccc2ccc(C(=O)N3CCCCO3)cn12 is below 30% in terms of INHIBITION.
(A) NOT MET

---

test system: Plasmodium berghei; test: Screen against P. berghei liver stage (PbLuc), transformed with Luciferase, at 10uM; assay type: functional, HepG2; settings: tested at 10 uM
The campaign covered roughly 69,000 compounds. About 8,600 (12%) showed an effect of 50% or more. Only a selection was taken, and strong results are over-represented in it overall.
Each entry below lists one item and its recorded INHIBITION value.
Numeric only. Scale: %

(Q) Find the recorded INHIBITION belonging to Cc1noc(C)c1CN1CCC2(CC1)CN(c1ccccn1)CCO2 and report it.
(A) -40.4

(Q) Another: Cc1ccc(N2CCC3(CC2)CC(OCC(=O)N(C)C)CO3)nn1 (centres undefined)
(A) 29

(Q) Another: Cc1ccc(CN2CCOC3(COCCN(S(C)(=O)=O)C3)C2)s1 (centres undefined)
(A) 11.4

(Q) Another: CS(=O)(=O)N1CCO[C@@H]2CN(Cc3ccc(F)cc3)CC[C@@H]2C1
(A) 10.5

(Q) Another: Cc1nnc(SCCC(=O)N(C)Cc2ccc(F)cc2F)[nH]1
(A) 1.96

(Q) Another: Cc1ccc(CN2CCC3(CC2)COCCN3S(C)(=O)=O)o1
(A) 11.6

(Q) Another: CC1CN(Cc2ccc(-n3cccn3)cc2)CCO1 (centres undefined)
(A) -15.5

(Q) Another: OCCN1CCC(CNCc2ccccc2OC(F)(F)F)CC1
(A) 4.8

(Q) Another: Cc1nnc(SCCC(=O)N(C)Cc2ccc(F)cc2Cl)[nH]1
(A) 51.1

(Q) Another: Fc1ccc(CN2CCC3(CC2)CN(c2ccccn2)CCO3)cc1
(A) 79.1

(Q) Another: CN1CCCC(CCC(=O)N2CCc3[nH]c(-c4ccccc4)nc3C2)C1 (centres undefined)
(A) 23

(Q) Another: CS(=O)(=O)N1CCOCC2(CN(Cc3ccc(F)cc3)CCO2)C1 (centres undefined)
(A) 57.4

---

tested on: Plasmodium berghei; assay: Screen against P. berghei liver stage (PbLuc), transformed with Luciferase, at 10uM; assay type: functional, HepG2; settings: tested at 10 uM
Screen size: about 69,000 compounds; about 8,600 (12%) showed an effect of 50% or more. Only a selection was taken, and strong results are over-represented in it overall.
readout: INHIBITION

{"columns": ["molecule", "target_or_test_system", "INHIBITION"],
 "data": [
  ["CN(CCc1ccncc1)C(=O)C1CSCN1C(=O)CC(C)(C)C (stereo not drawn)", "Plasmodium berghei", "-23.8%"],
  ["Cc1n[nH]c(SCC(=O)NC(c2ccncc2)C(C)C)n1 (stereo not drawn)", "Plasmodium berghei", "50.1%"]
]}

(Q) Find the recorded INHIBITION belonging to Cc1cc(F)ccc1N1CCC(N2C[C@@H](C)[C@@](C)(O)C2)CC1 and report it.
(A) 54.4%

(Q) Another: O=C(NCC1COCc2c(-c3cccnc3)nnn2C1)c1cccs1 (stereo not drawn)
(A) 43.2%

(Q) Another: NC(=O)CCC1CCCN(c2ccc3ccc(F)cc3n2)C1 (stereo not drawn)
(A) -65.4%

(Q) Another: Cc1cc2c(=O)n3c(nc2s1)CCN(C(=O)c1ccnn1C(C)C)CC3
(A) 11.1%

(Q) Another: CCOc1ccc2cc(C(=O)N3CCn4c(CC)nnc4C3)[nH]c2c1
(A) 0.411%

(Q) Another: Cc1nc(C2CCCN2C(=O)Cc2ccc(F)cc2)ncc1C(N)=O (stereo not drawn)
(A) 19.6%

(Q) Another: NC(=O)c1cn[nH]c1C1CCCN1C(=O)c1ccccc1 (stereo not drawn)
(A) 6.26%

(Q) Another: C[C@@H]1CN(C2CCN(c3ccccc3F)CC2)C[C@]1(C)O
(A) 47.9%

(Q) Another: Cc1nc(C2CCCN2C(=O)COc2ccccc2)ncc1C(N)=O (stereo not drawn)
(A) 52%
